measuredOn: T1, G9a and GLP (Homo sapiens, UniProt Q96KQ7+Q9H9B1)
T1 sequence (Q96KQ7 2-1210 limits assumed): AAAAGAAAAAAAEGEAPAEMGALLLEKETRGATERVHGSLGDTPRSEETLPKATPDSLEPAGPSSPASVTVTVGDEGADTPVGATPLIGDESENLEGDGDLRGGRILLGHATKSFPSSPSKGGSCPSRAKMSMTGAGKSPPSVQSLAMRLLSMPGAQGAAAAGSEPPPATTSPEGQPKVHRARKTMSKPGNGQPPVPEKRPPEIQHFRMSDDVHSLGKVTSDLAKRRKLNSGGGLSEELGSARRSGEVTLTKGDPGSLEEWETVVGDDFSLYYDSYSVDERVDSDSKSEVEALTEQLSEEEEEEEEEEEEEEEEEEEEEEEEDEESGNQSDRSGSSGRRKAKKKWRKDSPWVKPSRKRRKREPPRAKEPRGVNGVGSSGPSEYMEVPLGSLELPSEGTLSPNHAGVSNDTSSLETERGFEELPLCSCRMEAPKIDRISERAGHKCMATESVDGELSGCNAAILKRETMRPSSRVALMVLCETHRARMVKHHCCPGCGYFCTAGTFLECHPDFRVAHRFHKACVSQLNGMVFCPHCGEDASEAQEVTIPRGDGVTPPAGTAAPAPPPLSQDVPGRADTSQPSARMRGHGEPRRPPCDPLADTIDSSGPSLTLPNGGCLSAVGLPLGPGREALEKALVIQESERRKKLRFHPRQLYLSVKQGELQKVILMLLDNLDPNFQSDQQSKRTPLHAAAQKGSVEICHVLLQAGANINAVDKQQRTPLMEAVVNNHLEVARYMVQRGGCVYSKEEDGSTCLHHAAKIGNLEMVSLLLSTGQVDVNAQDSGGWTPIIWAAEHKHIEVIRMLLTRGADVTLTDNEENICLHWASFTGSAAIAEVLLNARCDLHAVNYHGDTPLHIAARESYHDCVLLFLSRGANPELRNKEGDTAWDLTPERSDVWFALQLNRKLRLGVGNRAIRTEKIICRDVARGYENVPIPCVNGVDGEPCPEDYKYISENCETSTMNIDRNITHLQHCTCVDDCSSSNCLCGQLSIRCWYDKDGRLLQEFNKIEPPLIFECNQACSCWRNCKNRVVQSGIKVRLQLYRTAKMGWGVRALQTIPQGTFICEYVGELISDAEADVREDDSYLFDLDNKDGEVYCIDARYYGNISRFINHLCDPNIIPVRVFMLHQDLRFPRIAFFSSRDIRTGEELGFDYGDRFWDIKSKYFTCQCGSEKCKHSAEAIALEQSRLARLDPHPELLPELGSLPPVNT
T1 sequence (Q9H9B1 2-1298 limits assumed): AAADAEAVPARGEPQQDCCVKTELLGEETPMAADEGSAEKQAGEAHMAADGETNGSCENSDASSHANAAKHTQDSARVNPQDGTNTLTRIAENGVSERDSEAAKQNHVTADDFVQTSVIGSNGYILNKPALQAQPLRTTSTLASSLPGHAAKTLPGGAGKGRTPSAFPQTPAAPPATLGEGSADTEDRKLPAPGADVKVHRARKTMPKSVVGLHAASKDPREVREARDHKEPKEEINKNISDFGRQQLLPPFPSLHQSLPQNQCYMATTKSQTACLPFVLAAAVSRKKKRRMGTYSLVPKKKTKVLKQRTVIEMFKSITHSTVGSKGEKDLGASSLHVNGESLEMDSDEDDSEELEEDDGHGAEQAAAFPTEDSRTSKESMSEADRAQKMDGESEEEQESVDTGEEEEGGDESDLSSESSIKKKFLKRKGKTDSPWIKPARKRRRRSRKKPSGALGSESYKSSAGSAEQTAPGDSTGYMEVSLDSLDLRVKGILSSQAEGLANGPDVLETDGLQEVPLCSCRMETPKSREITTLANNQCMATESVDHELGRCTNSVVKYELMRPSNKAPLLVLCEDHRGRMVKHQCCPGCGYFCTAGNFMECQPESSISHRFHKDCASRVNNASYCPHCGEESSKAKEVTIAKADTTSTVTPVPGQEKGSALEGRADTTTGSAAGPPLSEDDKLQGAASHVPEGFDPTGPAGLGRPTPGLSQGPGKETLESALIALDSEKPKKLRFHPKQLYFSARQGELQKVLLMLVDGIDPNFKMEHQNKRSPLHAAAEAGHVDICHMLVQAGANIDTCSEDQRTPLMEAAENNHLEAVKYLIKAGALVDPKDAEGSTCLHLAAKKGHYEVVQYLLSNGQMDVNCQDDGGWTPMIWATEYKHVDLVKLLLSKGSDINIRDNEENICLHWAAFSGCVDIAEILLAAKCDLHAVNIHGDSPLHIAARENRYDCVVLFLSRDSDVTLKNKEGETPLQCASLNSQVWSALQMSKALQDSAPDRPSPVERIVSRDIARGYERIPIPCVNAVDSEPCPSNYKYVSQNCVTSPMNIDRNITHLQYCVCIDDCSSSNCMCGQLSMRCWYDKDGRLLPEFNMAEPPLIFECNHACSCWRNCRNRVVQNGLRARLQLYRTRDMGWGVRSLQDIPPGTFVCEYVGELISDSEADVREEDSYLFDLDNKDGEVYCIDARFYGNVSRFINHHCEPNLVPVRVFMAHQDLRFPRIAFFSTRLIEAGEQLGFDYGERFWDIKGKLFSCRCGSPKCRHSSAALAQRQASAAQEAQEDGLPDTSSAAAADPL
protocolNotes: Triple SILAC pull-down after UNC0638 treatment of 293T cells, DMSO/UNC0638 ratio of protein captured by 3×MBT;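 also: mass spectrometry (Q-Exactive) SILAC quantitation, DMSO/UNC0638 ratio computed after subtracting 3×MBTD355N mutant pull-down background, only proteins with at least twofold 3×MBT over mutant signal considered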
Assay type: cell-based
Parameters: endogenous in cells; host or cells: HEK 293T
conditionSummary: average of UNC Light and UNC Heavy experiments
Reported Relative to UNC0638 Average values for the following molecules.

molecule	Relative to UNC0638 Average, log base 2
DENR (protein, UniProt O43583 2-198, looked up) Density-regulated protein: AADISESSGADCKGDPRNSAKLDADYPLRVLYCGVCSLPTEYCEYMPDVAKCRQWLEKNFPNEFAKLTVENSPKQEAGISEGQGTAGEEEEKKKQKRGGRGQIKQKKKTVPQKVTIAKIPRAKKKYVTRVCGLATFEIDLKEAQRFFAQKFSCGASVTGEDEIIIQGDFTDDIIDVIQEKWPEVDDDSIEDLGEVKK	0.14
DSTN (protein, UniProt P60981 2-165, looked up) Destrin: ASGVQVADEVCRIFYDMKVRKCSTPEEIKKRKKAVIFCLSADKKCIIVEEGKEILVGDVGVTITDPFKHFVGMLPEKDCRYALYDASFETKESRKEELMFFLWAPELAPLKSKMIYASSKDAIKKKFQGIKHECQANGPEDLNRACIAEKLGGSLIVAFEGCPV	0.14
HNRNPH3 (protein, UniProt P31942 1-346, looked up) Heterogeneous nuclear …: MDWVMKHNGPNDASDGTVRLRGLPFGCSKEEIVQFFQGLEIVPNGITLTMDYQGRSTGEAFVQFASKEIAENALGKHKERIGHRYIEIFRSSRSEIKGFYDPPRRLLGQRPGPYDRPIGGRGGYYGAGRGSMYDRMRRGGDGYDGGYGGFDDYGGYNNYGYGNDGFDDRMRDGRGMGGHGYGGAGDASSGFHGGHFVHMRGLPFRATENDIANFFSPLNPIRVHIDIGADGRATGEADVEFVTHEDAVAAMSKDKNNMQHRYIELFLNSTPGGGSGMGGSGMGGYGRDGMDNQGGYGSVGRMGMGNNYSGGYGTPDGLGGYGRGGGGSGGYYGQGGMSGGGWRGMY	0.34
